Assay: NCI Yeast Anticancer Drug Screen. Data for the mlh1 rad18 strain (AID 175)
Conditions: S. cerevisiae mlh1 rad18 strain growth inhibition; at 5.0 µM (retest, dose inferred, filed as 0.5); stronger effect = higher value
Procedure: Growth inhibition of yeast strains with defined genetic alterations is measured as a screen for potential anti-cancer activity. Selected strains with alterations in DNA damage repair or cell cycle control were exposed to compounds and growth inhibition was measured relative to vehicle treated controls. The strain used in this assay is mlh1 rad18
The panel holds about 79,000 compounds, 15% with a hit somewhere; the sample as a whole holds those more often.
What growth inhibition was measured for each of the following?
Give bare numbers, in %.

Look over these answered cases.
compound | assayMetric | testValue
O=Nc1ccc2ccccc2c1O | growth inhibition | 14
Cc1cc(Br)c2nsnc2c1[N+](=O)[O-] | growth inhibition | 37
CCOC(=O)/C(=C\c1ccc2ccccc2c1)P(=O)(OCC)OCC | growth inhibition | 17
Cc1cc(C(=O)c2ccc(Cl)cc2)ccc1O | growth inhibition | -1
CC(C)=C1C=C2CC[C@@H]3[C@](C)(CCC[C@@]3(C)C(=O)O)[C@H]2CC1 | growth inhibition | 0
CCCOC(=O)c1nc(N(CC2CCCCC2)C(=O)NC)sc1/N=C/c1ccccc1 | growth inhibition | 73
CCCCCCCCCCCCN1C(C)=CS/C1=C\C=C\c1scc(C)[n+]1CCCCCCCCCCCC | growth inhibition | 1
CCCCOS(=O)(=O)c1ccccc1 | growth inhibition | 3

Look up growth inhibition for the entries below, preserving their order.
1. C/C(=N\NC(=S)N(C)C)c1ccccn1
2. COc1cc2c(c(OC)c1OC)-c1ccc(NCc3ccccc3)c(=O)cc1[C@@H](NC(C)=O)CC2
3. Nc1cccc2c1-c1ccccc1C2=O
4. CCCCCCCCCCCC[S+](C)CC(=O)[O-] (stereo not drawn)
5. CCCCCCCCCCCC(=O)OC(C)C(=O)NCCCC (stereo not drawn)
6. C1=C(c2ccccc2)c2ccccc2C1
7. CCCCN(CCCC)C(=O)C(C)OC(C)=O (stereo not drawn)

stdout:
[95, 16, -35, 10, -17, 5, -38]

Data origin, for the record: PubChem BioAssay (NCI)
